- assay system: human thrombin (Homo sapiens, UniProt P00734)
- Construct: addition of 20 μ2L human thrombin (5 U/mL, SIGMA, T 1063); purchased SIGMA T 1063
- measurement protocol: Assay for thrombin-inhibiting activity (chromogenic substrate FVR-pNa)
- Type: biochemical
- applied conditions: 50% inhibition of initial reaction velocity, room temperature, absorbance at 405 nm; read-out: IC50 Thrombin
The following compounds are listed with their measured pIC50 values.
Scale: negative log10 of molar concentration, which is what pIC50 denotes.

Reference set (3 entries):
# molecule smiles, assay system, numeric result
data = [
    ("CCS(=O)(=O)N[C@H](Cc1ccc(-c2ccccc2)cc1)C(=O)N[C@@H](CCC(N)=O)C(=O)NCc1ccc(C(=N)N)cc1", "human thrombin (Homo sapiens, UniProt P00734)", 5.03),
    ("CCS(=O)(=O)N[C@H](Cc1ccc(OC)cc1)C(=O)N[C@@H](CCC(N)=O)C(=O)NCc1ccc(C(=N)N)cc1", "human thrombin (Homo sapiens, UniProt P00734)", 6.40),
    ("N=C(N)c1ccc(CNC(=O)[C@H](CCC(N)=O)NC(=O)[C@H](N)Cc2ccc(-c3ccccc3)cc2)cc1", "human thrombin (Homo sapiens, UniProt P00734)", 4.23),
]

// switching to the query compound
Exam item: Can you look up the measured pIC50 of CCS(=O)(=O)N[C@H](Cc1c[nH]c2ccccc12)C(=O)N[C@@H](CCC(N)=O)C(=O)NCc1ccc(C(=N)N)cc1 for me?
Marked response: 5.23
